What pIC50 was measured for each of the following?
target: KRAS Q61H (Homo sapiens (Human), UniProt P01116+P62937, Q61H); experiment: Ras-Raf disruption/FRET/MOA assay (BRAF RBD, Cyclophilin A); type: biochemical
Sequence (P01116 other isoform, or with tags, fused parts or gaps Q61H): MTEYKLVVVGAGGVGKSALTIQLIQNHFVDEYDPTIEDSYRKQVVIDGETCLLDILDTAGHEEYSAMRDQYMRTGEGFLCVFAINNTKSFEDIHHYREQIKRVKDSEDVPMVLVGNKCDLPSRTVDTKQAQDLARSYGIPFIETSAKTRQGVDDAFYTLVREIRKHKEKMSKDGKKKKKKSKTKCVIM
Sequence (P62937 whole entry): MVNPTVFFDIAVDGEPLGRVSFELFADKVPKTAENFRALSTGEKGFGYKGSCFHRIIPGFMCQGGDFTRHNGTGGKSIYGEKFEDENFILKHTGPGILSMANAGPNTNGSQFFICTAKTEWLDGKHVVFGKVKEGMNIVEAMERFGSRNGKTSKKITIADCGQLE
pIC50: −log10 of the molar value.

Problem: Tell me its pIC50 given CCn1c(-c2cccnc2[C@H](C)OC)c2c3cc(ccc31)-c1csc(n1)C[C@H](NC(=O)[C@H](C(C)C)N(C)C(=O)N1CC3(CC(N(C)C4COC4)C3)C1)C(=O)N1CCC[C@H](N1)C(=O)OCC(C)(C)C2 as the entry.
Result: 6.00 to 7.00

Problem: Tell me its pIC50 given CCn1c(-c2cccnc2[C@H](C)OC)c2c3cc(ccc31)-c1cccc(c1)C[C@H](NC(=O)[C@H](C(C)C)N(C)C(=O)[C@@H]1OCC[C@@H]1c1ccccc1)C(=O)N1CCC[C@H](N1)C(=O)OCC(C)(C)C2 as the entry.
Result: 6.00 to 7.00

Problem: Tell me its pIC50 given CCn1c(-c2cccnc2[C@H](C)OC)c2c3cc(ccc31)-c1csc(n1)C[C@H](NC(=O)C1CC1)C(=O)N1CCC[C@H](N1)C(=O)OCC(C)(C)C2 as the entry.
Result: 6.00 to 7.00
